Entries and their kon
- System: T1, recombinant human CD40 (ECD)-his (human, UniProt P25942 21-193)
- T1 construct: Bought protein; also called hCD40(ECD)-his; TNFRSF5
- T1 sequence (P25942 21-193): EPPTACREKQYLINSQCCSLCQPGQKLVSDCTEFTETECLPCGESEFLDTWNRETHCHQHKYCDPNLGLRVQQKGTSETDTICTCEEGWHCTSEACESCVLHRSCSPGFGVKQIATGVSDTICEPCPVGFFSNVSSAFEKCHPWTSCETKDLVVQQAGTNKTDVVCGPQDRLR
- Protocol notes: SPR (Biacore 8K), hCD40(ECD)-his coupled to chip, antibody injected
Experimental readout: kon (M⁻¹ s⁻¹)

{"Binder": "chimeric 7B4 antibody (antibody, human IgG2, kappa, V domains shown, Mouse variable regions with human IgG2/kappa constant regions) VH: EVQLQESGPGLVKPSQSLSLTCSVTGYSITTNYYWNWIRQFPGNKLEWMGYIKYDGSNNYNPSLKNRISITRDTSKNQFFLKLNSVTTEDTATYYCARLDYWGQGTSVTVSS VL: DIVLTQSPLSLPVSLGDQASISCRSSQSLENSNGNTFLNWFLQKPGQSPQLLIYKVSNRFSGVLDRFSGTGSGTDFTLTISRVEAEDLGVYFCLQVTHVPFTFGSGTKLEIKR", "Value": "1e+06"}
{"Binder": "7B4-VH3VL3 (antibody, human IgG2, V domains shown, Humanized, human IgG2/kappa) VH: QVQLQESGPGLVKPSDTLSLTCAVSGYSITTNYYWNWIRQPPGNKLEWMGYIKYDGSNNYNPSLKNRITISVDTSKNQFSLKLSSVTAVDTAVYYCARLDYWGQGTLVTVSS VL: DVVLTQSPLSLPVTLGQPASISCRSSQSLENSNGNTFLNWFQQRPGQSPRLLIYKVSNRFSGVPDRFSGSGSGTDFTLKISRVEAEDVGVYFCLQVTHVPFTFGSGTKLEIKR", "Value": "2.13e+06"}
{"Binder": "7B4-VH3VL2 (antibody, human IgG2, V domains shown, Humanized, human IgG2/kappa) VH: QVQLQESGPGLVKPSDTLSLTCAVSGYSITTNYYWNWIRQPPGNKLEWMGYIKYDGSNNYNPSLKNRITISVDTSKNQFSLKLSSVTAVDTAVYYCARLDYWGQGTLVTVSS VL: DVVLTQSPLSLPVTLGQPASISCRSSQSLENSNGNTFLNWFQQRPGQSPRLLIYKVSNRFSGVPDRFSGSGSGTDFTLKISRVEAEDVGVYYCLQVTHVPFTFGQGTKLEIKR", "Value": "1.46e+06"}
{"Binder": "7B4-VH0VL0 (antibody, human IgG2, kappa, V domains shown, Humanized, human IgG2/kappa) VH: QVQLQESGPGLVKPSDTLSLTCAVSGYSITTNYYWNWIRQPPGKGLEWIGYIKYDGSNNYNPSLKNRVTMSVDTSKNQFSLKLSSVTAVDTAVYYCARLDYWGQGTLVTVSS VL: DVVMTQSPLSLPVTLGQPASISCRSSQSLENSNGNTFLNWFQQRPGQSPRRLIYKVSNRFSGVPDRFSGSGSGTDFTLKISRVEAEDVGVYYCLQVTHVPFTFGQGTKLEIKR", "Value": "2.75e+06"}
{"Binder": "7B4-VH2VL3 (antibody, human IgG2, kappa, V domains shown, Humanized, human IgG2/kappa) VH: QVQLQESGPGLVKPSDTLSLTCAVSGYSITTNYYWNWIRQPPGKGLEWMGYIKYDGSNNYNPSLKNRITISVDTSKNQFSLKLSSVTAVDTAVYYCARLDYWGQGTLVTVSS VL: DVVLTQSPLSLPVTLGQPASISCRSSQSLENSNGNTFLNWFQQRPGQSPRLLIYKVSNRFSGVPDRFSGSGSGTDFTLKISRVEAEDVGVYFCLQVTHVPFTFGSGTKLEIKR", "Value": "1.78e+06"}
